Biological target: ZFP SBS#1394 (synthetic, UniProt P08047)
Sequence (P08047 other isoform, or with tags, fused parts or gaps): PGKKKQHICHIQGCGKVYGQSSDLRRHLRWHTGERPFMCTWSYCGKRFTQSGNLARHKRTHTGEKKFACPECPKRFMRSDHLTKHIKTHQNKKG
Experiment: EMSA
Conditions: tags: MBP fusion
result_type: pKd
Give bare numbers, as −log10 of the molar value.

[Q] Return reported pKd; argument: TGGGAAGCT (dsDNA) DNA 1: TGGGAAGCT DNA 2: AGCTTCCCA
[A] 10.40
